Test system: Enterobacter cloacae
Assay: Antibacterial activity against Enterobacter cloacae
Assay type: functional
Rule: MIC90 below 0.5 µg/mL gives fulfilled. Equal to or above 0.5 µg/mL gives not fulfilled.

Some solved entries appear below for comparison.
CCOC(=O)c1c(-c2ccc(OC)cc2)oc2ccc(OCCCCCN3C(=O)/C(=N\O)c4ccccc43)cc12 | not fulfilled
CCOC(=O)c1c(-c2ccc(OC)cc2)oc2ccc(OCCCCCCN3C(=O)/C(=N\OC)c4ccccc43)cc12 | fulfilled
CCOC(=O)c1c(-c2ccccc2)oc2ccc(OCCCCN3C(=O)/C(=N\OC)c4cc(F)ccc43)cc12 | not fulfilled
CCO/N=C1\C(=O)N(CCCCOc2ccc3oc(-c4ccc(OC)cc4)c(C(=O)OCC)c3c2)c2ccc(F)cc21 | fulfilled
CCO/N=C1\C(=O)N(CCCCOc2ccc3oc(-c4ccc(OC)cc4)c(C(=O)OCC)c3c2)c2ccccc21 | not fulfilled

Turning to the following compound.
Input: Bench note: check whether `CCOC(=O)c1c(-c2ccc(F)cc2)oc2ccc(OCCCCCCN3C(=O)/C(=N\OC)c4cc(F)ccc43)cc12` shows MIC90 below 0.5 µg/mL
Output: fulfilled

----------
Assay: AUC (0 to infinity) in ICR mouse at 25 mg/kg, po
Format: ADME, organism-based
Parameters: dose 25 mg/kg, time infinity, route oral
Settings: in vivo
value.type: AUC(0-inf) (ng·h/mL)
Numbers only here, please. The scale is ng·h/mL.

CNC(=O)c1c(-c2ccc(O)cc2)oc2ccc(O)c(CN3CCCCC3)c12 | 39300
CCOC(=O)c1c(-c2ccc(OC)cc2)oc2ccc(OCCCCN3C(=O)/C(=N\OC)c4ccccc43)cc12 | 3020

Attention now turns to another entry.
Input: Give the measured AUC(0-inf) of O=C(O)c1cn(C2CC2)c2cc(N3CCNCC3)c(F)cc2c1=O [CIPROFLOXACIN] .
Output: 17800

----------
Assay: Metabolic stability in mouse assessed as half life
Type: ADME
value.type: half-life (min)
# output: bare number, implied unit min

Input: # lookup: half-life of `CCOC(=O)c1c(-c2ccc(OC)cc2)oc2ccc(OCCCCN3C(=O)/C(=N\OC)c4ccccc43)cc12`
Output: 19.2

----------
Test: Selectivity index, ratio of CC50 for African green monkey Vero cells to MIC for Mycobacterium tuberculosis H37Rv
Type: toxicity
Settings: read-out: Selectivity Index
This section presents compounds with their documented selectivity ratio values.
In your answer, state the number alone without any accompanying words.

Previously resolved entries follow.
CCOC(=O)c1c(-c2ccc(OC)cc2)oc2ccc(OCCCCN3C(=O)/C(=N\OC)c4cc(F)ccc43)cc12 | 1030
CCOC(=O)c1c(-c2ccc(OC)cc2)oc2ccc(OCCCCCN3C(=O)C(=O)c4cc(F)ccc43)cc12 | 8000
CCOC(=O)c1c(-c2ccc(OC)cc2)oc2ccc(OCCCCCCN3C(=O)C(=O)c4ccccc43)cc12 | 4130
CCOC(=O)c1c(-c2ccc(OC)cc2)oc2ccc(OCCCCCN3C(=O)/C(=N\O)c4ccccc43)cc12 | 1030
NNC(=O)c1ccncc1 | 3280
CCO/N=C1\C(=O)N(CCCCCOc2ccc3oc(-c4ccc(OC)cc4)c(C(=O)OCC)c3c2)c2ccc(F)cc21 | 1030

Let's switch to this compound now.
Input: Please look up its selectivity ratio: `CCO/N=C1\C(=O)N(CCCCOc2ccc3oc(-c4ccc(OC)cc4)c(C(=O)OCC)c3c2)c2ccc(F)cc21`
Output: 410
